Form field: PBM binding z-score (one value per entry).
System: RARa homodimer (NR concentration 270 nM)
Assay: PBM binding z-score (relative to random genomic background probes); higher = stronger binding; sequences stand for … in GC…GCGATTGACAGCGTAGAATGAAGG
Form field (numeric): enter value without unit.

Consider the worked cases shown below.
{"residue_sequence": "TAGCCTAGGTCAGATCGGGCCAGTATTCGCTATA", "PBM binding z-score": -0.762}
{"residue_sequence": "CAAACTGGGTCACAGAGGTCAAAGTCCGTGCGTA", "PBM binding z-score": 0.622}
{"residue_sequence": "TCTGCTAGGTCAGTTGGTCAGCAAACGAGCTGCC", "PBM binding z-score": -1.22}
{"residue_sequence": "TCTGGTTGGTCACGGAGGTCACACACGACGGGTA", "PBM binding z-score": 2}
{"residue_sequence": "TCGAGTAGGTTAGGGGGATTCAGAATGGCGTCGA", "PBM binding z-score": 0.665}

Kindly review the next sequence as well.
Give a short answer stating reported PBM binding z-score for CCTACTGGGCCACGAAAGGTCATTGACTCAGTGA .
0.622
